Numbers sourced from ChEMBL document CHEMBL3867488.

assay: Plasma concentration in cynomolgus monkey at 1 mg/kg, po qd administered via gavage for 14 days measured after 5 hrs of last-dose by LC/MS/MS analysis; type: ADME, organism-based, Macaca fascicularis
reported metric: concentration at 5 h (nM)

I: CC(C)(O)c1cn(-c2ccc(-c3cc(F)c(CO)c(S(C)(=O)=O)c3)cc2)c(C(C)(C)c2cccc(F)c2Cl)n1
II: CC(C)(O)c1cn(-c2ccc(-c3cc(F)c(CO)c(S(C)(=O)=O)c3)cc2F)c(C(C)(C)c2c(Cl)cccc2Cl)n1
query: I or II : whose concentration at 5 h is greater? Please identify the chosen entry by its label.
result: I

----------
molecular target: Oxysterols receptor LXR-beta (Homo sapiens, UniProt P55055); test: Agonist activity at LXR-beta in human whole blood assessed as ABCG1 gene induction by measuring ABCA1 mRNA level after 4 hrs by SYBR-Green dye-based Q-PCR analysis; assay type: tissue-based
reported metric: EC50 (µM)
Quick reminder: number only, in µM, skip the unit.

query: Field request: EC50 | item: CC(C)(O)c1cn(-c2ccc(-c3cccc(S(C)(=O)=O)c3)cc2)c(C(C)(C)c2ccccc2Cl)n1 [BMS-779788]
result: 1.1

----------
test: Clearance in cynomolgus monkey at 0.2 mg/kg, iv administered as cassette dose by LC/MS/MS analysis; assay type: ADME, organism-based, Macaca fascicularis; conditions: in vivo
reported metric: clearance (mL/min/kg)

a: CC(O)c1ccc(-c2ccc(-n3cc(C(C)(C)O)nc3C(C)(C)c3ccccc3Cl)cc2)cc1S(C)(=O)=O (stereo not drawn)
b: CC(C)(O)c1cn(-c2ccc(-c3cccc(S(C)(=O)=O)c3)cc2)c(C(C)(C)c2ccccc2Cl)n1
c: CC(C)(O)c1cn(-c2ccc(-c3cc(F)c(CO)c(S(C)(=O)=O)c3)cc2)c(C(C)(C)c2ccccc2Cl)n1
query: Lab note: arrange the 3 compounds above from lowest to highest clearance. Return the labels ranked in the requested order, please.
result: b, a, c
(b: 2.9 mL/min/kg, a: 5.6 mL/min/kg, c: 8.4 mL/min/kg)

----------
experiment: Half life in human plasma; type: ADME, cell-free
reported metric: half-life

query: # get_value(readout='half-life', item= CC(C)(O)c1cn(-c2ccc(-c3cccc(S(C)(=O)=O)c3)cc2)c(C(C)(C)c2ccccc2Cl)n1 )
result: 100 to 200 h

----------
Target: Oxysterols receptor LXR-beta (Homo sapiens)
Sequence (whole entry): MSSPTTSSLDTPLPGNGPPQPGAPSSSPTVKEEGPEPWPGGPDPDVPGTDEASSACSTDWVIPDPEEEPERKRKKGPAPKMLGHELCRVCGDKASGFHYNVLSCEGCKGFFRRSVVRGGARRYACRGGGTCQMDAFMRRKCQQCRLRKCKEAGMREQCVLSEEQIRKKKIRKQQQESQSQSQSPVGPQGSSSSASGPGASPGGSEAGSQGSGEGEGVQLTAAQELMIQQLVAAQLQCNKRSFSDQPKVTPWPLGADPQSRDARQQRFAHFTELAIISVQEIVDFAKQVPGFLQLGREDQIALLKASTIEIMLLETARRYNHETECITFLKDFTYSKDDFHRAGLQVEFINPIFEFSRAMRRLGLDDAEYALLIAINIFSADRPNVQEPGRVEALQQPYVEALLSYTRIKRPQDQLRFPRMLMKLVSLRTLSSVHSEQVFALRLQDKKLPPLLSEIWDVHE
Test: Agonist activity at human LXR-beta expressed in African green monkey CV1 cells measured after 18 to 20 hrs by luciferase reporter gene assay relative to pan agonist 1-(2,4-difluorobenzyl)-2-oxo-6-(4-phenoxyphenyl)-4-(trifluoromethyl)-1,2-dihydropyridine-3-carbonitrile
Format: cell-based
Conditions: CV-1
reported metric: Efficacy (%)

Solved entries (count: 5):
# compound, reading unit, endpoint result
records = [
    ("CC(C)(O)c1cn(-c2ccc(-c3cc(F)c(CO)c(S(C)(=O)=O)c3)cc2)c(C(C)(C)c2ccccc2Cl)n1", "%", 83),
    ("CC(C)(O)c1cn(-c2ccc(-c3cc(F)c(CO)c(S(C)(=O)=O)c3)cc2)c(Cc2c(Cl)cccc2Cl)n1", "%", 54),
    ("CC(C)(O)c1cn(-c2ccc(-c3ccc(CO)c(S(C)(=O)=O)c3)cc2)c(Cc2ccccc2Cl)n1", "%", 50),
    ("CC(C)(O)c1cn(-c2ccc(-c3cc(F)c(CO)c(S(C)(=O)=O)c3)cc2F)c(C(C)(C)c2ccccc2Cl)n1", "%", 79),
    ("CC(C)(O)c1cn(-c2ccc(-c3ccc(CO)c(S(C)(=O)=O)c3)cc2)c(C(C)(C)c2ccccc2Cl)n1", "%", 74),
]

A: CC(C)(O)c1cn(-c2ccc(-c3cc(F)c(CO)c(S(C)(=O)=O)c3)cc2F)c(C(C)(C)c2c(F)cccc2Cl)n1
B: CC(C)(O)c1cn(-c2ccc(-c3cccc(S(C)(=O)=O)c3)cc2)c(C(C)(C)c2c(Cl)cccc2Cl)n1
query: A or B : whose Efficacy is greater? // respond with label for picked entry
result: A
(A: 86%, B: 41%)
